pKi: −log10 of the molar value.
System: Histamine H3 receptor (Homo sapiens, UniProt Q9Y5N1) | Read-out: pKi | Origin: multiple publications

>  <COMPOUND>
C[C@@H]1CCCN1CCCOc1ccc(C(=O)CN2CCN(C(=O)c3ccc(F)cc3F)CC2)cc1

>  <pKi>
7.00 to 10.00

$$$$

INPUT: Param readout= pKi; system= Histamine H3 receptor (Homo sapiens, UniProt Q9Y5N1); entry= O=C1NN=C(c2ccc3c(c2)CCC2(CCN(C4CCC4)CC2)O3)C2CCC12 (single isomer, unassigned) ; returns value.
OUTPUT: > 6.70

INPUT: Query pKi on Histamine H3 receptor (Homo sapiens, UniProt Q9Y5N1) for `Cc1nc2ccccc2n1CC(=O)c1ccc(OCCCN2CCC[C@H]2C)cc1`
OUTPUT: 7.00 to 10.00

INPUT: What is its pKi for Histamine H3 receptor (Homo sapiens, UniProt Q9Y5N1)? Entry: `Cc1cc2ccccc2n1-c1ccc(OCCCN2CCCC2)cc1`
OUTPUT: > 8.00

INPUT: For Histamine H3 receptor (Homo sapiens, UniProt Q9Y5N1), provide pKi of `C[C@@H]1CCCN1CCCOc1ccc(C(=O)CN2CCN(c3ncccn3)CC2)cc1Cl` please.
OUTPUT: 7.00 to 10.00
